Assay: in vivo
Parameters: species or system mice
Settings: male, NODSCID 1L2RγKO, mouse, iv, total radioactivity, Kidneys uptake

[
  {
    "molecule": "COc1ccc(CCCC(=O)NCC(=O)N[C@@H](CCCCNC(=O)CN2CCN(CC(=O)O)CCN(CC(=O)O)CCN(CC(=O)O)CC2)C(=O)NC[C@H]2CC[C@H](C(=O)N[C@@H](Cc3c4ccccc4cc4ccccc34)C(=O)NCCCC[C@H](NC(=O)N[C@@H](CSCC(=O)O)C(=O)O)C(=O)O)CC2)cc1 [177Lu-HTK04048, metal not drawn]",
    "unit-of-measure": "%ID/g",
    "tissue uptake at 24 h": 5.06
  },
  {
    "molecule": "COc1ccc(CCCC(=O)NCC(=O)N[C@@H](CCCCNC(=O)CN2CCN(CC(=O)O)CCN(CC(=O)O)CCN(CC(=O)O)CC2)C(=O)NC[C@H]2CC[C@H](C(=O)N[C@@H](Cc3c4ccccc4cc4ccccc34)C(=O)NCCCC[C@H](NC(=O)N[C@@H](COCC(=O)O)C(=O)O)C(=O)O)CC2)cc1 [177Lu-HTK04028, metal not drawn]",
    "unit-of-measure": "%ID/g",
    "tissue uptake at 24 h": 4.32
  },
  {
    "molecule": "COc1ccc(CCCC(=O)NCC(=O)N[C@@H](CCCCNC(=O)CN2CCN(CC(=O)O)CCN(CC(=O)O)CCN(CC(=O)O)CC2)C(=O)NC[C@H]2CC[C@H](C(=O)N[C@@H](Cc3c4ccccc4cc4ccccc34)C(=O)NCCCC[C@H](NC(=O)N[C@@H](CCCC(=O)O)C(=O)O)C(=O)O)CC2)cc1 [177Lu-HTK03170, metal not drawn]",
    "unit-of-measure": "%ID/g",
    "tissue uptake at 24 h": 5.8
  }
]
